Target: UniProtKB P08684

{"columns": ["Smiles str", "Kd"],
 "data": [
  ["CC(C)(C)OC(=O)N[C@H](CSCCC(=O)NCc1cccnc1)Cc1ccccc1", "0.9 µM"],
  ["NCCc1cccnc1", "2500 µM"]
]}

----------
Quick reference for K among some compounds
Target: Cytochrome P450 3A4 (Homo sapiens, UniProt P08684)
Sequence (P08684 whole entry, the tested form may be a part): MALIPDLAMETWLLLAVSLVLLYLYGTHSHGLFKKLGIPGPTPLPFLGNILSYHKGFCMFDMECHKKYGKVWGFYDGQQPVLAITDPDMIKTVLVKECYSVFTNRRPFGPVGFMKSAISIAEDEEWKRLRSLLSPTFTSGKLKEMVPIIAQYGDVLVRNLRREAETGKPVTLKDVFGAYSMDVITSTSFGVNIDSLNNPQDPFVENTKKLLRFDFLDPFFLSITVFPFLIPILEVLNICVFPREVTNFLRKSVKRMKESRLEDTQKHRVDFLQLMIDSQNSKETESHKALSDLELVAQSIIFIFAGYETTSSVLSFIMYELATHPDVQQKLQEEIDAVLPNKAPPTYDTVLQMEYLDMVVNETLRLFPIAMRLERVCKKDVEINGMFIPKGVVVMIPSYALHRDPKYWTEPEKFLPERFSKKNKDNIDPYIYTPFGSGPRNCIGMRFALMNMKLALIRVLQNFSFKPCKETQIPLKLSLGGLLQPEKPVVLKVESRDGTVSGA
Protocol description: Binding affinity to C-terminal four-histidine tagged human CYP3A4delta3 to 24 residues expressed in Escherichia coli assessed as rate constant for first phase
Assay type: ADME

{"columns": ["Smiles str", "Target", "K"],
 "data": [
  ["CC(C)(C)OC(=O)N[C@H](CSCCC(=O)NCc1cccnc1)Cc1c[nH]c2ccccc12", "Cytochrome P450 3A4 (Homo sapiens, UniProt P08684)", "8 s⁻¹"],
  ["c1ccncc1", "Cytochrome P450 3A4 (Homo sapiens, UniProt P08684)", "0.5 s⁻¹"],
  ["NCCCCCC(=O)NCc1cccnc1", "Cytochrome P450 3A4 (Homo sapiens, UniProt P08684)", "0.8 s⁻¹"],
  ["NCCc1cccnc1", "Cytochrome P450 3A4 (Homo sapiens, UniProt P08684)", "0.6 s⁻¹"],
  ["CC(C)(C)OC(=O)NCCCCCC(=O)NCc1cccnc1", "Cytochrome P450 3A4 (Homo sapiens, UniProt P08684)", "20 s⁻¹"],
  ["CC(C)(C)OC(=O)N[C@H](CSCCC(=O)NCc1cccnc1)Cc1ccccc1", "Cytochrome P450 3A4 (Homo sapiens, UniProt P08684)", "1.7 s⁻¹"],
  ["CC(C)(C)OC(=O)N[C@H](CSCCC(=O)NCc1cccnc1)CC1CCCCC1", "Cytochrome P450 3A4 (Homo sapiens, UniProt P08684)", "4 s⁻¹"]
]}

----------
Target: Cytochrome P450 3A4 (Homo sapiens)
Protocol description: Binding affinity to C-terminal four-histidine tagged human CYP3A4delta3 to 24 residues expressed in Escherichia coli assessed as change in melting temperature at 10 uM by spectrophotometric method
Format: ADME
List of deltaTm values.

{"columns": ["Compound", "deltaTm [°C]"],
 "data": [
  ["CC(C)(C)OC(=O)N[C@H](CSCCC(=O)NCc1cccnc1)Cc1ccccc1", -1],
  ["CC(C)(C)OC(=O)N[C@H](CSCCC(=O)NCc1cccnc1)CC1CCCCC1", -2],
  ["CC(C)(C)OC(=O)NCCCCCC(=O)NCc1cccnc1", -0.2],
  ["c1ccncc1 [PYRIDINE]", 0],
  ["NCCCCCC(=O)NCc1cccnc1", -0.2],
  ["NCCc1cccnc1", -0.1],
  ["CC(C)(C)OC(=O)N[C@H](CSCCC(=O)NCc1cccnc1)Cc1c[nH]c2ccccc12", 0.2]
]}
